Data origin, for the record: patent US11040981B2

# targetSystem: FLT3 (Homo sapiens)
# Sequence (P36888 27-993): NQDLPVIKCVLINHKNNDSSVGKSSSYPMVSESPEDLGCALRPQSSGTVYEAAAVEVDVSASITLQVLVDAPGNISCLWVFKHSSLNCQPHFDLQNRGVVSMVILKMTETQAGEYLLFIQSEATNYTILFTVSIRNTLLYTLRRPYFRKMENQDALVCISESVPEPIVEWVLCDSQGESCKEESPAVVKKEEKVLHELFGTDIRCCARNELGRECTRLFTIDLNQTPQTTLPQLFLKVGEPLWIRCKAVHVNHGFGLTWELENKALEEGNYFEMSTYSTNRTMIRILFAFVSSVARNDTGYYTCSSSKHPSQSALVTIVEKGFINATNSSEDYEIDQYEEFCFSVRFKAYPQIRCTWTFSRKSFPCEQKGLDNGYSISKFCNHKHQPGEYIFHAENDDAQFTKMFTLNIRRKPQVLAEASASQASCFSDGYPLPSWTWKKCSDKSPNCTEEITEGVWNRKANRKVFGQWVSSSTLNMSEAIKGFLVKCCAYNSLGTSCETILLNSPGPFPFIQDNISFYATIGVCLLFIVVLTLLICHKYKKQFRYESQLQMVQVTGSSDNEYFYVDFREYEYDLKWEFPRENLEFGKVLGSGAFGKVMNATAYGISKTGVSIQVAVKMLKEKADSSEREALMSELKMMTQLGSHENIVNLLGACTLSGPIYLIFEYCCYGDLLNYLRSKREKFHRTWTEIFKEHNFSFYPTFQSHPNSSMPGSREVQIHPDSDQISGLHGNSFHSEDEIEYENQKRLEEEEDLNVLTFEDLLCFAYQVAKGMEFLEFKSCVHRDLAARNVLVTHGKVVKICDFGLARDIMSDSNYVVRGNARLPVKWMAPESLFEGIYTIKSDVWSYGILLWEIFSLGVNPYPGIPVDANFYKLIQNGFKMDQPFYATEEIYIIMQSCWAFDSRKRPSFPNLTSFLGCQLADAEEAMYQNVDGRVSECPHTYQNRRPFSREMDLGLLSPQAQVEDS
# methodDescription: TR-FRET kinase activity assay, FLT3
# Format: biochemical
# testConditions: ATP at Km, 60 minutes
Listed next: entries and their corresponding IC50.

Reference set (3 entries):
INPUT: Output measured IC50 for this item: COC[C@H](C)Nc1ncc2c(-c3cnn(C(C)(C)C(=O)N4CCC(C)(O)CC4)c3)cc([C@H]3CC[C@H](O)CC3)n2n1 [Compound 450]
OUTPUT: 1 to 10 µM

INPUT: Output measured IC50 for this item: CC(CC#N)Nc1ncc2c(-c3ccc(CN4CCN(C)CC4)cc3)cc(C3CCC(O)CC3)n2n1 (stereo not shown) [Compound 145]
OUTPUT: ≤ 0.1 µM

INPUT: Output measured IC50 for this item: Cc1cc(-c2cc([C@H]3CC[C@H](O)CC3)n3nc(N[C@@H](C)CC(F)(F)F)ncc23)ccn1 [Compound 213]
OUTPUT: ≤ 0.1 µM

Further cases:
INPUT: Output measured IC50 for this item: CC(C)Nc1ncc2c(-c3ccnc(N4CCOCC4)c3)cc([C@H]3CC[C@H](O)CC3)n2n1 [Compound 350]
OUTPUT: ≤ 0.1 µM

INPUT: Output measured IC50 for this item: COCC(C)Nc1ncc2c(C3CCN(C(C)=O)C3)cc(C3CCC(O)CC3)n2n1 (mixture of isomers) [Compound 383]
OUTPUT: 1 to 10 µM

INPUT: Output measured IC50 for this item: CCN(C(=O)N1CCN(c2cc(-c3cc([C@H]4CC[C@H](O)CC4)n4nc(N[C@@H](C)COC)ncc34)ccn2)CC1)C(C)C [Compound 514]
OUTPUT: 1 to 10 µM

INPUT: Output measured IC50 for this item: COC[C@H](C)Nc1ncc2c(-c3ccc4c(c3)CNC4=O)cc([C@H]3CC[C@H](O)CC3)n2n1 [Compound 252]
OUTPUT: 0.1 to 1 µM

====

Listed next: entries and their corresponding IC50.
# targetSystem: FLT3 (Homo sapiens)
# Sequence (P36888 27-993): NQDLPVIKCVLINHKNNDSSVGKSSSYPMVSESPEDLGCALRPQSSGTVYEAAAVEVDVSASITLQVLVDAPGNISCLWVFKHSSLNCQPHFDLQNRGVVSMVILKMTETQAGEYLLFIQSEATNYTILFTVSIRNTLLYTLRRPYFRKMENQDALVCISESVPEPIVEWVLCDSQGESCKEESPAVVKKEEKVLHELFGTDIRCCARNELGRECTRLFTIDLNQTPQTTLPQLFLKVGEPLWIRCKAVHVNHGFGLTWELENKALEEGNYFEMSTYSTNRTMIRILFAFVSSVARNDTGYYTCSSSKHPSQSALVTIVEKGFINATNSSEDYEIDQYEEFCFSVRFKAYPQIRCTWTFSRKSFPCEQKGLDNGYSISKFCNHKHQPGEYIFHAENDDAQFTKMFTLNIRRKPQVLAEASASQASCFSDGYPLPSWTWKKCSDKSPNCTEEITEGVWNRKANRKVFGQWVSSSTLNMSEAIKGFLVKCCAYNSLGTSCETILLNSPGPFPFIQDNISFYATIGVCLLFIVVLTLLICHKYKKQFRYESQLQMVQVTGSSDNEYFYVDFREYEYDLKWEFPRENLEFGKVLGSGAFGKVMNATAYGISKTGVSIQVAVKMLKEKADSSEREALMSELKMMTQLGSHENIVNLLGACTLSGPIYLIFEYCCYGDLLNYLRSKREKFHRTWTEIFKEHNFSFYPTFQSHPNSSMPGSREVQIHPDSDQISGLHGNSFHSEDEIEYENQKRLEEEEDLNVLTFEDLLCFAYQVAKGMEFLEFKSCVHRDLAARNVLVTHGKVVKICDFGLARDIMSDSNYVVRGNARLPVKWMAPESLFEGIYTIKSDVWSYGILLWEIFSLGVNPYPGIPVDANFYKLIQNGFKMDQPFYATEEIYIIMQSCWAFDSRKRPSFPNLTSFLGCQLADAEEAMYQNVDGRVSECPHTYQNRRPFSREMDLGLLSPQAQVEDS

INPUT: Output measured IC50 for this item: "COC[C@H](C)Nc1ncc2c(-c3cn(C[Si](C)(C)C)nn3)cc([C@H]3CC[C@H](O)CC3)n2n1"
OUTPUT: 1000 to 10000 nM

INPUT: Output measured IC50 for this item: "COC[C@H](C)Nc1ncc2c(-c3cnn(C4COC4)c3)cc([C@H]3CC[C@@H](O)CC3)n2n1"
OUTPUT: ≤ 100 nM

INPUT: Output measured IC50 for this item: "COC[C@H](C)Nc1ncc2c(-c3ccn(C)n3)cc([C@H]3CC[C@H](O)CC3)n2n1"
OUTPUT: 1000 to 10000 nM

Further cases:
INPUT: Output measured IC50 for this item: "C[C@@H](COC(F)F)Nc1ncc2c(-c3cnn(C4COC4)c3)cc([C@H]3CC[C@H](O)CC3)n2n1"
OUTPUT: ≤ 100 nM

====

# targetSystem: AXL (Homo sapiens, UniProt P30530)
# methodDescription: TR-FRET kinase activity assay, AXL
# Format: biochemical
# testConditions: ATP at Km, 60 minutes
pIC50: −log10 of the molar value.
Listed next: entries and their corresponding pIC50.

Reference set (5 entries):
INPUT: Output measured pIC50 for this item: "COC[C@H](C)Nc1ncc2c(-c3cnn(CC(=O)NS(C)(=O)=O)c3)cc([C@H]3CC[C@H](O)CC3)n2n1"
OUTPUT: 6.00 to 7.00

INPUT: Output measured pIC50 for this item: "COC[C@H](C)Nc1ncc2c([C@H]3CC[C@H](C(C)=O)CC3)cc([C@H]3CC[C@H](O)CC3)n2n1"
OUTPUT: 6.00 to 7.00

INPUT: Output measured pIC50 for this item: "COC[C@H](C)Nc1ncc2c(-c3cnn(C(C)(C)C)c3)cc([C@H]3CC[C@H](O)CC3)n2n1"
OUTPUT: 6.00 to 7.00

INPUT: Output measured pIC50 for this item: "COC[C@H](C)Nc1ncc2c(-c3cnn(C(C)(C)CO)c3)cc([C@H]3CC[C@H](O)CC3)n2n1"
OUTPUT: ≥ 7.00

INPUT: Output measured pIC50 for this item: "C[C@@H](CC(F)F)Nc1ncc2c(-c3cnn(C4COC4)c3)cc([C@H]3CC[C@H](O)CC3)n2n1"
OUTPUT: ≥ 7.00

Further cases:
INPUT: Output measured pIC50 for this item: "COC[C@H](C)Nc1ncc2c(C3=C[C@@H]4CC[C@H](C3)N4C(=O)N3CCOCC3)cc([C@H]3CC[C@H](O)CC3)n2n1"
OUTPUT: ≥ 7.00

INPUT: Output measured pIC50 for this item: "COC[C@H](C)Nc1ncc2c(-c3cncc([S@@](C)(=N)=O)c3)cc([C@H]3CC[C@H](O)CC3)n2n1"
OUTPUT: 6.00 to 7.00

====

# targetSystem: AXL (Homo sapiens, UniProt P30530)
# Sequence (P30530 26-894): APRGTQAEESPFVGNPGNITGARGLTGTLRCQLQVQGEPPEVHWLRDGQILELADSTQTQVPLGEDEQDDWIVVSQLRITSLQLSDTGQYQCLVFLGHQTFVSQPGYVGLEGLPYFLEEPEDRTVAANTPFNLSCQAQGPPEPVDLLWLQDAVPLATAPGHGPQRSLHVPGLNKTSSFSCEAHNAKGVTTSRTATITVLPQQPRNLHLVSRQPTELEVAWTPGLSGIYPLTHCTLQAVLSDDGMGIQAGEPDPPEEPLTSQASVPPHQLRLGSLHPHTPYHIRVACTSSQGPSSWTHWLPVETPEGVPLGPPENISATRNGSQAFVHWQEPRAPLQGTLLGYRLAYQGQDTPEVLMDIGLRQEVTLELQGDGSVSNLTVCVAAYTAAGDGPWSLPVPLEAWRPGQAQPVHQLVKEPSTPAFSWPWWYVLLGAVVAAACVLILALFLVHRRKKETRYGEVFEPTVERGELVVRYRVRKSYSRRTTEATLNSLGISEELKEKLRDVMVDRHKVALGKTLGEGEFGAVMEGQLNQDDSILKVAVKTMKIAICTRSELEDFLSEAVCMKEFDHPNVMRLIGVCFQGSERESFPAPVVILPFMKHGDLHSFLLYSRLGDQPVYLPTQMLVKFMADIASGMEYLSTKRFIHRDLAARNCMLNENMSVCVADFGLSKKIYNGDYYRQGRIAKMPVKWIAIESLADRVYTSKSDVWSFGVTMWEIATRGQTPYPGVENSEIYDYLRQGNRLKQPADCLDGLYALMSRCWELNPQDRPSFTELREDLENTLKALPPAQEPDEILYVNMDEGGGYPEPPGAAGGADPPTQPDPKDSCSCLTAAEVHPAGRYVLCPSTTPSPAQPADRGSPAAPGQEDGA
# methodDescription: TR-FRET kinase activity assay, AXL
# Assay type: biochemical
# testConditions: ATP at Km, 60 minutes
# Method: IC50 values for compound inhibition of AXL, FLT3, MERTK and TYRO3 activity were determined by using a TR-FRET activity assay. […] Activity assays were performed in a 384-well, small volume, black microplates in an active enzyme volume of 10 μL and final developed volume of 20 μL. […] Plates are read in a Pherastar plate reader. Data is analyzed in GraphPad PRISM. […]
measure: IC50

Reference set (3 entries):
INPUT: Output measured IC50 for this item: "CCCCC[C@H](C)Nc1ncc2c([C@H]3CC[C@@H](C(=O)O)CC3)cc([C@H]3CC[C@H](O)CC3)n2n1"
OUTPUT: 100 to 1000 nM

INPUT: Output measured IC50 for this item: "COCC[C@@H](C)Nc1ncc2c(-c3ccc(CN4CCOCC4)cc3)cc([C@H]3CC[C@H](O)CC3)n2n1"
OUTPUT: 100 to 1000 nM

INPUT: Output measured IC50 for this item: "COC[C@H](C)Nc1ncc2c(-c3ccc(C(=O)N4CCN(C)CC4)cc3)cc([C@H]3CC[C@H](O)CC3)n2n1"
OUTPUT: ≤ 100 nM

Further cases:
INPUT: Output measured IC50 for this item: COCC(C)Nc1ncc2c(N3CCOCC3=O)cc(C3CCC(O)CC3)n2n1 (centres unmarked)
OUTPUT: 1000 to 10000 nM

INPUT: Output measured IC50 for this item: "COC[C@H](C)N(C)c1ncc2c(-c3ccnc(C)c3)cc([C@H]3CC[C@H](O)CC3)n2n1"
OUTPUT: 1000 to 10000 nM

INPUT: Output measured IC50 for this item: "COC[C@H](C)Nc1ncc2c(-c3ccnc([S@@](C)(=N)=O)c3)cc([C@H]3CC[C@H](O)CC3)n2n1"
OUTPUT: 100 to 1000 nM

INPUT: Output measured IC50 for this item: COC[C@H](C)Nc1ncc2c(-c3cnn(CC4CCCO4)c3)cc([C@H]3CC[C@H](O)CC3)n2n1 (some centres unmarked)
OUTPUT: ≤ 100 nM

INPUT: Output measured IC50 for this item: "COC[C@H](C)Nc1ncc2c(-c3cnn(C4COC4)c3)cc(C3CCC(F)(F)CC3)n2n1"
OUTPUT: 100 to 1000 nM

INPUT: Output measured IC50 for this item: "COC[C@H](C)Nc1ncc2c(-c3cnn(C(C)(C)C(=O)N4C[C@H](C)O[C@@H](C)C4)c3)cc([C@H]3CC[C@H](O)CC3)n2n1"
OUTPUT: ≤ 100 nM

INPUT: Output measured IC50 for this item: "COC[C@H](C)Nc1ncc2c(-c3cncc(C(=O)N4CCOCC4)c3)cc([C@H]3CC[C@H](O)CC3)n2n1"
OUTPUT: 100 to 1000 nM

INPUT: Output measured IC50 for this item: "Cc1cc(-c2cc([C@H]3CC[C@H](O)CC3)n3nc(N[C@@H](C)C(F)F)ncc23)ccn1"
OUTPUT: ≤ 100 nM
